Biological target: T1, Murine CTGF (Mus musculus, UniProt P29268)
T1 construct: purchased Abbexa
T1 sequence (P29268 26-348): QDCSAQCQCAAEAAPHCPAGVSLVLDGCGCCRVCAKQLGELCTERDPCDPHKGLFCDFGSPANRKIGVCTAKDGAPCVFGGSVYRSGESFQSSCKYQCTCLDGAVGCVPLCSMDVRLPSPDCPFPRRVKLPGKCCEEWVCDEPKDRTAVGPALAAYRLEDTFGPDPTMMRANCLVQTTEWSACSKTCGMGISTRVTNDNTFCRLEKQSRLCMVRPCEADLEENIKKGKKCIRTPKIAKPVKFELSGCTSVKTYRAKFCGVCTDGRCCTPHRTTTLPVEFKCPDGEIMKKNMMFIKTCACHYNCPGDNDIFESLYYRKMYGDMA
Test: SPR binding kinetics and affinity, murine CTGF
Conditions: 25° C., 1:1 binding model
Procedure: Surface plasmon resonance (SPR) was used to measure binding kinetics and affinity of the representative lipocalin muteins disclosed herein. The binding of exemplary lipocalin muteins to human (Creative Biomart), cynomolgus, rat (R&D Systems) and mouse CTGF (Abbexa) was determined by SPR using a Biacore instrument (Cytiva, formerly GE Healthcare). […] The values determined for kon, koff and the resulting equilibrium dissociation constant (KD) for exemplary lipocalin muteins are summarized in Table 4.
readout_kind: Murine CTGF koff (s⁻¹)
// units = s⁻¹; emit number, no label

Ask: What value of Murine CTGF koff has been recorded for this entry: SEQ ID NO: 35: optimized CTGF-binding hNGAL lipocalin mutein (protein, lipocalin mutein) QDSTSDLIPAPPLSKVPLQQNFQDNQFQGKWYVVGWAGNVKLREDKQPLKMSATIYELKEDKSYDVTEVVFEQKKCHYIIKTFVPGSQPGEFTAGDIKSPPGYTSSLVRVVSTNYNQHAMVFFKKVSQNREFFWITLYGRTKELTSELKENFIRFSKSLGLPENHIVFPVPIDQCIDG
Result: 0.000287

FYI, the data here is from patent US20240228562A1.
